Listed here are compounds together with their documented Activity.
experiment: Antioxidant activity assessed as oxygen radical scavenging by measuring trolox equivalents; format: functional
Please give only the number in your answer, with no unit.

Oc1cc(C(F)(F)F)nn1-c1ccc(C(F)(F)F)cn1 :: 1.1
CC1=NN(c2ccccc2)C(=O)C1 [EDARAVONE] :: 1.46
Oc1cc(C(F)(F)F)nn1-c1ncc(Cl)cc1Cl :: 1.3

Req: Supply recorded Activity for Oc1cc(C(F)(F)F)nn1-c1ncc(F)cn1 here.
Resp: 1.07

Req: Supply recorded Activity for Oc1cc(C(F)(F)F)nn1-c1ncccc1C(F)(F)F here.
Resp: 1.22

Req: Supply recorded Activity for Cc1cc(O)n(-c2ncccc2C)n1 here.
Resp: 1.88

Req: Supply recorded Activity for Cc1cc(O)n(-c2ccccn2)n1 here.
Resp: 1.27

Req: Supply recorded Activity for OCc1ccc(-n2nc(C(F)(F)F)cc2O)nc1 here.
Resp: 0.91

----------
assay: Antioxidant activity assessed as ABTS radical scavenging activity at 8 uM relative to control; type: functional
Activity less than 50% is true; Activity greater than or equal to 50% is false.

OCc1ccc(-n2nc(C(F)(F)F)cc2O)nc1 :: false

Req: is_below(Activity, 50%) for Cc1nc(C)c(-n2nc(C(F)(F)F)cc2O)nc1C ?
Resp: false

Req: is_below(Activity, 50%) for Oc1cc(C(F)(F)F)nn1-c1ncc(Cl)cc1Cl ?
Resp: true

Req: is_below(Activity, 50%) for Cc1cc(O)n(-c2ccc(F)cn2)n1 ?
Resp: false

Req: is_below(Activity, 50%) for Cc1cc(O)n(-c2ncccc2C)n1 ?
Resp: false

Req: is_below(Activity, 50%) for Cc1cc(O)n(-c2ccccn2)n1 ?
Resp: false

----------
experiment: Antioxidant activity assessed as DPPH radical scavenging activity at 8 uM relative to control; assay type: functional
Listed here are compounds together with their documented Activity.
Kindly provide the numeric value in % only, without the unit symbol.

Cc1cc(O)n(-c2ccccn2)n1 :: 35.1

Req: Supply recorded Activity for Oc1cc(C(F)(F)F)nn1-c1ccc(F)cn1 here.
Resp: 35.7

Req: Supply recorded Activity for CC1=NN(c2ncc(Cl)cc2Cl)C(=O)C1 here.
Resp: 6.73

Req: Supply recorded Activity for OCc1ccc(-n2nc(C(F)(F)F)cc2O)nc1 here.
Resp: 40.4

Req: Supply recorded Activity for Cc1cc(O)n(-c2ncccc2C(F)(F)F)n1 here.
Resp: 2.85

Req: Supply recorded Activity for Cc1cc(O)n(-c2cccc(CO)n2)n1 here.
Resp: 28.5

Req: Supply recorded Activity for Oc1cc(C(F)(F)F)nn1-c1ncc(F)cn1 here.
Resp: 30.9

Req: Supply recorded Activity for Oc1cc(C(F)(F)F)nn1-c1ncccn1 here.
Resp: 36.4

Req: Supply recorded Activity for Cc1cc(O)n(-c2ccc(F)cn2)n1 here.
Resp: 21.4

Req: Supply recorded Activity for Cc1nc(C)c(-n2nc(C(F)(F)F)cc2O)nc1C here.
Resp: 30.6

Req: Supply recorded Activity for Cc1cc(O)n(-c2ccc(C(F)(F)F)cn2)n1 here.
Resp: 30.3

Req: Supply recorded Activity for CC1=NN(c2ccccc2)C(=O)C1 here.
Resp: 21.4

Req: Supply recorded Activity for Oc1cc(C(F)(F)F)nn1-c1ncccc1Cl here.
Resp: 28.1

----------
assay: Antioxidant activity assessed as ABTS radical scavenging activity; format: functional
Listed here are compounds together with their documented pIC50.
By convention, pIC50 is the negative base-10 log of a molar concentration.

Cc1cc(O)n(-c2ccc(Cl)cn2)n1 :: 4.83
Oc1cc(C(F)(F)F)nn1-c1ccc(F)cn1 :: 4.78

Here is another compound to look at.
Req: Supply recorded pIC50 for Cc1cc(C)nc(-n2nc(C)cc2O)n1 here.
Resp: 4.83

----------
experiment: Antioxidant activity assessed as oxygen radical scavenging by measuring trolox equivalents; format: functional
Lab note: anything with Activity at or over 1 counts as yes; the rest go in no.

Oc1cc(C(F)(F)F)nn1-c1ncccc1Cl :: yes
CC1=NN(c2ncc(Cl)cc2Cl)C(=O)C1 :: yes
Oc1cc(C(F)(F)F)nn1-c1ccc(F)cn1 :: yes
Cc1nc(C)c(-n2nc(C(F)(F)F)cc2O)nc1C :: yes

Req: Please check the record Cc1cc(O)n(-c2ccc(CO)cn2)n1 and state if its Activity is at or above 1.
Resp: no

Req: Please check the record Cc1cc(C)nc(-n2nc(C)cc2O)n1 and state if its Activity is at or above 1.
Resp: yes

----------
Listed here are compounds together with their documented Activity.
experiment: Antioxidant activity assessed as ABTS radical scavenging activity at 8 uM relative to control; type: functional
Kindly provide the numeric value in % only, without the unit symbol.

Cc1cc(O)n(-c2cccc(CO)n2)n1 :: 49.6

Req: Supply recorded Activity for Oc1cc(C(F)(F)F)nn1-c1ncccn1 here.
Resp: 63.2

Req: Supply recorded Activity for Cc1cc(O)n(-c2ccc(C(F)(F)F)cn2)n1 here.
Resp: 55

Req: Supply recorded Activity for Cc1cc(O)n(-c2ncccc2C(F)(F)F)n1 here.
Resp: 5.92

----------
experiment: Antioxidant activity assessed as ABTS radical scavenging activity at 8 uM relative to control; assay type: functional
reported-property: Activity
Please answer in the form of a number followed by its unit of measurement.

Worked cases, Activity given:
Oc1cc(C(F)(F)F)nn1-c1ncccc1C(F)(F)F :: 36.1%
Cc1cc(O)n(-c2ccc(Cl)cn2)n1 :: 52%
Oc1cc(C(F)(F)F)nn1-c1ncc(F)cn1 :: 65.4%

Req: Supply recorded Activity for Oc1cc(C(F)(F)F)nn1-c1ncccc1Cl here.
Resp: 40.4%

Req: Supply recorded Activity for Cc1cc(O)n(-c2ccc(CO)cn2)n1 here.
Resp: 46.4%

Req: Supply recorded Activity for Cc1cc(O)n(-c2ncccc2Cl)n1 here.
Resp: 4.56%

----------
assay: Antioxidant activity assessed as ABTS radical scavenging activity at 8 uM relative to control; type: functional
Listed here are molecules together with their documented Activity.
Kindly provide the numeric value in % only, without the unit symbol.

CC1=NN(c2ncc(Cl)cc2Cl)C(=O)C1 :: 31.9

Req: Supply recorded Activity for Cc1cc(C)nc(-n2nc(C)cc2O)n1 here.
Resp: 63.9

Req: Supply recorded Activity for Oc1cc(C(F)(F)F)nn1-c1ccc(C(F)(F)F)cn1 here.
Resp: 68.1

Req: Supply recorded Activity for Oc1cc(C(F)(F)F)nn1-c1ccc(F)cn1 here.
Resp: 58.3

Req: Supply recorded Activity for CC1=NN(c2ccccc2)C(=O)C1 [EDARAVONE] here.
Resp: 52.3

Provenance of the data: ChEMBL document CHEMBL6083244
